Molecular target: human recombinant serotonin (5-Hydroxytryptamine) 5-HT2C receptor (Homo sapiens)
Construct: expressed in transfected cells; host or cells: CHO-K1 cells
Sequence (P28335 33-458): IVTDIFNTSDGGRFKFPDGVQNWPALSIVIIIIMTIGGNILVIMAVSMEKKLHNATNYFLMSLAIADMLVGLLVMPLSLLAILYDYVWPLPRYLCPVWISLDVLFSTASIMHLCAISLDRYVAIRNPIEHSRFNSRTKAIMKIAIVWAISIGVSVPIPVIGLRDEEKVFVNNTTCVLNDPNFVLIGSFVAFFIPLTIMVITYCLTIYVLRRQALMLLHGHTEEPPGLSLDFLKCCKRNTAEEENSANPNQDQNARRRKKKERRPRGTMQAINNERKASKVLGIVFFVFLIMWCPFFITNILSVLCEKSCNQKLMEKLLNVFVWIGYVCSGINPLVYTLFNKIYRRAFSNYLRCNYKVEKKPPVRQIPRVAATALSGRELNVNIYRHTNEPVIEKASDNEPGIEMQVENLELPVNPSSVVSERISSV
Assay: Serotonin 5-HT2C radioligand binding ([3H]Mesulergine)
Settings: 1 h; read-out: Percent Inhibition of ligand binding Serotonin (1 μM ligand concentration) 5-HT2C
Catalogue of inhibition at 1 µM readings, one per entry.
result type: inhibition at 1 µM (%)

compound="CCC1c2c(c3cc(Cl)ccc3n2/C=C(\\C)c2ccc(F)c(F)c2)CCN1C (stereo not drawn) [Compound 112]" tested_system="human recombinant serotonin (5-Hydroxytryptamine) 5-HT2C receptor (Homo sapiens)" assay_result=94
compound="C/C(=C\\n1c2c(c3cc(Cl)ccc31)CCN(C)C2)c1ccc(Cl)c(Cl)c1 [Compound 114]" tested_system="human recombinant serotonin (5-Hydroxytryptamine) 5-HT2C receptor (Homo sapiens)" assay_result=95
compound="CN1CCc2c(n(CC(C)(O)c3ccc(F)cc3)c3ccc(Cl)cc23)C1 (stereo not drawn) [Compound 62]" tested_system="human recombinant serotonin (5-Hydroxytryptamine) 5-HT2C receptor (Homo sapiens)" assay_result=95
compound="Cc1ccc2c(c1)c1c(n2CCC(=O)N2CCCCC2)CN(C)CC1 [Compound 43]" tested_system="human recombinant serotonin (5-Hydroxytryptamine) 5-HT2C receptor (Homo sapiens)" assay_result=31
compound="Cc1ccc2c(c1)c1c(n2CC(C)(O)c2ccc(F)cc2)CN(C)CC1 (stereo not drawn) [Compound 61]" tested_system="human recombinant serotonin (5-Hydroxytryptamine) 5-HT2C receptor (Homo sapiens)" assay_result=81
compound="CCC1c2c(c3cc(C)ccc3n2/C=C(\\C)c2ccc(Cl)c(Cl)c2)CCN1C (stereo not drawn) [Compound 177]" tested_system="human recombinant serotonin (5-Hydroxytryptamine) 5-HT2C receptor (Homo sapiens)" assay_result=88
compound="Cc1ccc2c(c1)c1c(n2C#Cc2ccc(Cl)cc2)CN(C)CC1 [Compound 130]" tested_system="human recombinant serotonin (5-Hydroxytryptamine) 5-HT2C receptor (Homo sapiens)" assay_result=95
compound="CN1CCc2c(n(CC(=O)N3CCNCC3)c3ccc(Cl)cc23)C1 [Compound 55]" tested_system="human recombinant serotonin (5-Hydroxytryptamine) 5-HT2C receptor (Homo sapiens)" assay_result=13
compound="COc1ccc(C(O)Cn2c3c(c4cc(Cl)ccc42)CCN(C)C3)cc1OC (stereo not drawn) [Compound 70]" tested_system="human recombinant serotonin (5-Hydroxytryptamine) 5-HT2C receptor (Homo sapiens)" assay_result=63

---

Target: human recombinant serotonin (5-Hydroxytryptamine) 5-HT2A receptor (Homo sapiens, UniProt P28223)
Construct: expressed in transfected cells; host or cells: CHO-K1 cells
Sequence (P28223 whole entry): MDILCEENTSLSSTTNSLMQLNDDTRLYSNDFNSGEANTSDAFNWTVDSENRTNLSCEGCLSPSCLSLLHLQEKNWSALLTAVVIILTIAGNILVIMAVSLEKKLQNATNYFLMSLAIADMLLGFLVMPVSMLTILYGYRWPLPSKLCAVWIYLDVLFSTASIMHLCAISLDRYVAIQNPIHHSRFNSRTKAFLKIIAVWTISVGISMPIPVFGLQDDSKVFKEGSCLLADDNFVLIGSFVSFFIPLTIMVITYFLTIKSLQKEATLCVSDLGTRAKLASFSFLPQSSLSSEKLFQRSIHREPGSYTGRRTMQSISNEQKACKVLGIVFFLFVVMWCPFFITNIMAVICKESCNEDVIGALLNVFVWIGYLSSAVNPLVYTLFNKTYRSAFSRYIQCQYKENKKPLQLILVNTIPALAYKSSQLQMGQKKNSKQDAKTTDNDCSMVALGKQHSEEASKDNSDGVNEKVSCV
Assay: Serotonin 5-HT2A radioligand binding ([3H]Ketanserin)
Conditions: compound concentration 0.03 μM; read-out: Percentage inhibition of ligand binding to 5-HT2A receptor
Protocol: To evaluate in radioligand binding assays the activity of compounds of the invention, human recombinant serotonin (5-Hydroxytryptamine) 5-HT2A receptor expressed in Chinese hamster ovary (CHO-K1) cells (Bonhaus, D. W. et al. Br. J. Pharmacol. 115:622, 1995; Saucier, C. and Albert, P. R., J. Neurochem. 68:1998, 1997) in a 50 mM Tris-HCl buffer, pH 7.4, was used. […] Receptor proteins were filtered and washed, the filters were then counted to determine [^3H]Ketanserin specifically bound. […]
Catalogue of inhibition at 0.03 µM readings, one per entry.
result type: inhibition at 0.03 µM (%)

molecule="C/C(=C\\n1c2c(c3cc(C)ccc31)CCN(C)C2C)c1ccccc1F (stereo not shown)" result_type="inhibition at 0.03 µM" assay_result=46
molecule=Cc1ccc2c(c1)c1c(n2/C=C/c2ccccc2)CN(C)CC1 result_type="inhibition at 0.03 µM" assay_result=37
molecule=C/C(=C\n1c2c(c3cc(C)ccc31)CCN(C)C2)c1ccc(F)cc1 result_type="inhibition at 0.03 µM" assay_result=54
molecule=C/C(=C\n1c2c(c3cc(Cl)ccc31)CCN(C)C2)c1ccc(F)cc1 result_type="inhibition at 0.03 µM" assay_result=31

---

Catalogue of inhibition at 1 µM readings, one per entry.
Target: human recombinant serotonin (5-Hydroxytryptamine) 5-HT6 receptor (Homo sapiens)
Construct: expressed in transfected cells; host or cells: human HeLa cells
Sequence (P50406 whole entry): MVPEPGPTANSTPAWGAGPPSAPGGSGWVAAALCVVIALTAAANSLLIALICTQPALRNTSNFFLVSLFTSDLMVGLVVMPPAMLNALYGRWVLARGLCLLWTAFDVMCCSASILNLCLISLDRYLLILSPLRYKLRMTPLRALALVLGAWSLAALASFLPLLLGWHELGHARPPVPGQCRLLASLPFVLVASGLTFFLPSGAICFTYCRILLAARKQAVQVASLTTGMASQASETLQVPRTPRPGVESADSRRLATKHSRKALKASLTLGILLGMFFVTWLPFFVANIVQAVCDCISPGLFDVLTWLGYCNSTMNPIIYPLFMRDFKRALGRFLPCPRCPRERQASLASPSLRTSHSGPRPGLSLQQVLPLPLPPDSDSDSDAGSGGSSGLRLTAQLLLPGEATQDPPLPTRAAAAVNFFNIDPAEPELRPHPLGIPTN
Test: Serotonin 5-HT6 radioligand binding ([3H]LSD)
Details: compound concentration 1 μM; read-out: Percentage inhibition of ligand binding to 5-HT6 receptor
result type: inhibition at 1 µM

compound=C/C(=C\n1c2c(c3cc(Cl)ccc31)CCN(C)C2)c1ccc(F)cc1 result_type="inhibition at 1 µM" assay_result=98%
compound="C/C(=C\\n1c2c(c3cc(C)ccc31)CCN(C)C2C)c1ccccc1F (stereo not shown)" result_type="inhibition at 1 µM" assay_result=95%
compound=C/C(=C\n1c2c(c3cc(C)ccc31)CCN(C)C2)c1ccc(F)cc1 result_type="inhibition at 1 µM" assay_result=100%
compound=Cc1ccc2c(c1)c1c(n2/C=C/c2ccccc2)CN(C)CC1 result_type="inhibition at 1 µM" assay_result=96%

---

Target: human recombinant serotonin (5-Hydroxytryptamine) 5-HT2A receptor (Homo sapiens)
Construct: expressed in transfected cells; host or cells: CHO-K1 cells
Experiment: Serotonin 5-HT2A radioligand binding ([3H]Ketanserin)
Conditions: 1 h; read-out: Percent Inhibition of ligand binding Serotonin (1 μM ligand concentration) 5-HT2A
result type: inhibition at 1 µM (%)

compound="CCC1c2c(c3cc(C)ccc3n2/C=C(\\C)c2ccc(Cl)cc2)CCN1C (stereo not drawn)" assay_result=95
compound="C/C(=C\\n1c2c(c3cc(Cl)ccc31)CCN(C)C2C)c1ccccc1F (stereo not drawn)" assay_result=94
compound="CCC1c2c(c3cc(Cl)ccc3n2/C=C(\\C)c2ccc(F)c(F)c2)CCN1C (stereo not drawn)" assay_result=82
compound="CCC1c2c(c3cc(Cl)ccc3n2CCc2ccc(F)cc2)CCN1C (stereo not drawn)" assay_result=80
compound="CC1c2c(c3cc(Cl)ccc3n2CCc2ccc(F)cc2)CCN1C (stereo not drawn)" assay_result=93
compound="C/C(=C/n1c2c(c3cc(C)ccc31)CCN(C)C2C)c1ccc(F)c(F)c1 (stereo not drawn)" assay_result=86
compound=CN1CCc2c(n(CC(=O)N(C)C)c3ccc(Cl)cc23)C1 assay_result=10
compound="C/C(=C\\n1c2c(c3cc(C)ccc31)CCN(C)C2C)c1ccc(Cl)cc1 (stereo not drawn)" assay_result=96
compound="CCC1c2c(c3cc(C)ccc3n2C#Cc2ccc(Cl)cc2)CCN1C (stereo not drawn)" assay_result=98
compound="CCC1c2c(c3cc(Cl)ccc3n2C#Cc2ccc(F)cc2)CCN1C (stereo not drawn)" assay_result=85
compound=C/C(=C\n1c2c(c3cc(Cl)ccc31)CCN(C)C2)c1ccc(F)cc1 assay_result=97
compound=CN1CCc2c(n(CC(=O)Nc3ccc(F)cc3)c3ccc(Cl)cc23)C1 assay_result=6
compound=COc1ccc(/C(C)=C/n2c3c(c4cc(Cl)ccc42)CCN(C)C3)cc1F assay_result=95
compound=C/C(=C\n1c2c(c3cc(C)ccc31)CCN(C)C2)c1ccc(Cl)c(Cl)c1 assay_result=99
compound=Cc1ccc2c(c1)c1c(n2C(=O)Cc2ccc(Cl)cc2)CN(C)CC1 assay_result=95
compound="C/C(=C\\n1c2c(c3cc(C)ccc31)CCN(C)C2C)c1ccccc1F (stereo not drawn)" assay_result=102
compound="C/C(=C/n1c2c(c3cc(C)ccc31)CCN(C)C2C)c1ccccc1F (stereo not drawn)" assay_result=85
compound="COc1ccc(C(O)Cn2c3c(c4cc(Cl)ccc42)CCN(C)C3)cc1OC (stereo not drawn)" assay_result=56

---

Molecular target: human recombinant serotonin (5-Hydroxytryptamine) 5-HT6 receptor (Homo sapiens)
Construct: expressed in transfected cells; host or cells: human HeLa cells
Assay: Serotonin 5-HT6 radioligand binding ([3H]LSD)
Details: 2 h; read-out: Percent Inhibition of ligand binding Serotonin (1 μM ligand concentration) 5-HT6
Description: To evaluate in radioligand binding assays the activity of compounds of the invention, human recombinant serotonin (5-Hydroxytryptamine) 5-HT6 receptor expressed in human HeLa cells (Monsma, F. J. Jr. et al., Mol. Pharmacol. 43:320, 1993) in a modified Tris-HCl buffer (50 mM Tris-HCl, pH 7.4, 150 mM NaCl, 2 mM Ascorbic Acid, 0.001% BSA) was used. […] Receptor proteins were filtered and washed, the filters were then counted to determine [3H]LSD specifically bound. […]
Catalogue of inhibition at 1 µM readings, one per entry.
result type: inhibition at 1 µM

compound="CCC1c2c(c3cc(C)ccc3n2/C=C(\\C)c2ccc(Cl)cc2)CCN1C (stereo not drawn) [Compound 160]" tested_system="human recombinant serotonin (5-Hydroxytryptamine) 5-HT6 receptor (Homo sapiens)" assay_result=24%
compound="CN1CCc2c(n(CC(=O)O)c3ccc(Cl)cc23)C1 [Compound 52]" tested_system="human recombinant serotonin (5-Hydroxytryptamine) 5-HT6 receptor (Homo sapiens)" assay_result=-4%
compound="CCC1c2c(c3cc(C)ccc3n2C(=O)Cc2ccc(F)cc2)CCN1C (stereo not drawn) [Compound 159]" tested_system="human recombinant serotonin (5-Hydroxytryptamine) 5-HT6 receptor (Homo sapiens)" assay_result=46%
compound="CN1CCc2c(n(CCc3ccc(F)cc3)c3ccc(Cl)cc23)C1 [Compound 3]" tested_system="human recombinant serotonin (5-Hydroxytryptamine) 5-HT6 receptor (Homo sapiens)" assay_result=100%
compound="Cc1ccc2c(c1)c1c(n2C(=O)Cc2ccc(Cl)cc2)C(c2ccccc2)N(C)CC1 (stereo not drawn) [Compound 163]" tested_system="human recombinant serotonin (5-Hydroxytryptamine) 5-HT6 receptor (Homo sapiens)" assay_result=89%
compound="C/C(=C\\n1c2c(c3cc(C)ccc31)CCN(C)C2C)c1ccc(Cl)cc1Cl (stereo not drawn) [Compound 178]" tested_system="human recombinant serotonin (5-Hydroxytryptamine) 5-HT6 receptor (Homo sapiens)" assay_result=25%
compound="Cc1ccc2c(c1)c1c(n2CC(=O)O)CN(C)CC1 [Compound 53]" tested_system="human recombinant serotonin (5-Hydroxytryptamine) 5-HT6 receptor (Homo sapiens)" assay_result=-8%
compound="Cc1ccc2c(c1)c1c(n2CCc2ccc(C)nc2)CN(C)CC1 [Compound 1]" tested_system="human recombinant serotonin (5-Hydroxytryptamine) 5-HT6 receptor (Homo sapiens)" assay_result=5%
compound="CCC1c2c(c3cc(Cl)ccc3n2CCc2ccc(F)cc2)CCN1C (stereo not drawn) [Compound 78]" tested_system="human recombinant serotonin (5-Hydroxytryptamine) 5-HT6 receptor (Homo sapiens)" assay_result=48%
